Values compiled from paper PMC10112504.

target-or-test-system: VEGFR-2 (Homo sapiens, UniProt P35968)
Sequence (P35968 20-1356): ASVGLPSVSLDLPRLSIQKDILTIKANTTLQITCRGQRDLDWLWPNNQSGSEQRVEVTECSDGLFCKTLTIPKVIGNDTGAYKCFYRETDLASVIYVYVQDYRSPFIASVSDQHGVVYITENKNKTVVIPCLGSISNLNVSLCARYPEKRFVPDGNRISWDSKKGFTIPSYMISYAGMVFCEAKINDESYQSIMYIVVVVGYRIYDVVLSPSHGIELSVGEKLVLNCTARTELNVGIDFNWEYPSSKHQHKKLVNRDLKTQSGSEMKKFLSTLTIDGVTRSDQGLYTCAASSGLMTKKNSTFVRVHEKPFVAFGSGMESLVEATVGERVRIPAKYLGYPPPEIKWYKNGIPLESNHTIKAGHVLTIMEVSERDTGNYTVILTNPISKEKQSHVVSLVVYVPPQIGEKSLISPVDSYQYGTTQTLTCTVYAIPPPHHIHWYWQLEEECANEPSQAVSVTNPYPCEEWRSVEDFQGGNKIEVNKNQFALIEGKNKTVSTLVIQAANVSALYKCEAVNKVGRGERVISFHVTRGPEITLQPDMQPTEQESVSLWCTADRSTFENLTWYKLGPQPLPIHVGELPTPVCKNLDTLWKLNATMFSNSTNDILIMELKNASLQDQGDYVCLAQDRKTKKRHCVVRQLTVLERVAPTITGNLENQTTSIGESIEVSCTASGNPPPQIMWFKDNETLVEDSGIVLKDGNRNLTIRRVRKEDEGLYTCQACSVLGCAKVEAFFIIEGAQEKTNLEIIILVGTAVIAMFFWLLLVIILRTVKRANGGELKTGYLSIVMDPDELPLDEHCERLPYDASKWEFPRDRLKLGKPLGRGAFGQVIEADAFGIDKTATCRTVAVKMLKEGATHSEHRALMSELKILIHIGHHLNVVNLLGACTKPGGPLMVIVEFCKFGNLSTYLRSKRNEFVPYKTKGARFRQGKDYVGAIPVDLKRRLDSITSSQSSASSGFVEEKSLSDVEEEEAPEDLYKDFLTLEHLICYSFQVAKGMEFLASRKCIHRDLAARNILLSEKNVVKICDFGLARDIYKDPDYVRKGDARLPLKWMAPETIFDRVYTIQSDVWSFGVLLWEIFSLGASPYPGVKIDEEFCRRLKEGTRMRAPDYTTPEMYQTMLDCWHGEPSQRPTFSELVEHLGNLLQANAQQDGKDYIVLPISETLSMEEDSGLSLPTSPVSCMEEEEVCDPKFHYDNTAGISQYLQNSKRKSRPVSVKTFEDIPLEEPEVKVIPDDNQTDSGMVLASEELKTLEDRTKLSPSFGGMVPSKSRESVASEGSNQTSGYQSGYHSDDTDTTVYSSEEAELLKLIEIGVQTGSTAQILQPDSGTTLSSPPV
observed-property: pIC50
Reminder that pIC50 means the negative base-10 logarithm of the concentration expressed in mol/L.

// worked examples, pIC50 included
{"columns": ["molecule", "value-reported"],
 "data": [
  ["N#Cc1c(-c2cccs2)cc(-c2ccc(O)cc2)nc1N [2a]", 6.71],
  ["NC(=S)n1nc(-c2ccc(Cl)c(Cl)c2)cc1-c1cccs1 [10b]", 6.85],
  ["O=C(SC(=S)N1N=C(c2ccc(O)cc2)CC1c1cccs1)c1ccccc1 (centres unmarked) [18a]", 6.46],
  ["CCOC(=O)CN1N=C(c2ccc(O)cc2)CC1c1cccs1 (centres unmarked) [15a]", 5.94]
]}

# input for lookup
Task: Under VEGFR-2 (Homo sapiens, UniProt P35968): pIC50 value of Oc1ccc(C2=NNC(c3cccs3)C2)cc1 (centres unmarked) [7a] ?
Result: 6.29

====

observed-property: melting point (°C)
Number only, in °C; omit the unit.

{"columns": ["molecule", "melting point [°C]"],
 "data": [
  ["O=C(CCl)SC(=S)N1N=C(c2ccc(O)cc2)CC1c1cccs1 (stereo not shown) [20a]", 265],
  ["CCOC(=O)CN1N=C(c2ccc(O)cc2)CC1c1cccs1 (stereo not shown) [15a]", 65],
  ["N#Cc1c(-c2cccs2)cc(-c2ccc(O)cc2)nc1N [2a]", 260]
]}

Task: State the recorded melting point for this entry: N#Cc1c(-c2cccs2)cc(-c2ccc(O)cc2)nc1O [5a]
Result: 200

Task: State the recorded melting point for this entry: CCOC(=O)CSC(=S)N1N=C(c2ccc(O)cc2)CC1c1cccs1 (stereo not shown) [17a]
Result: 200

Task: State the recorded melting point for this entry: N#Cc1c(N)c2c(-c3cccs3)cc(-c3ccc(O)cc3)nc2[nH]c1=O [6a]
Result: 260

Task: State the recorded melting point for this entry: O=C(/C=C/c1cccs1)c1ccc(Cl)c(Cl)c1 [1b]
Result: 85

====

observed-property: melting point (°C)
Number only, in °C; omit the unit.

// worked examples, melting point included
{"columns": ["compound", "quantity-unit", "melting point"],
 "data": [
  ["CCOC(=O)c1c(-c2cccs2)cc(-c2ccc(O)cc2)[nH]c1=O", "°C", 125],
  ["CC(=O)N1N=C(c2ccc(Cl)c(Cl)c2)CC1c1cccs1 (stereo not shown)", "°C", 160]
]}

Task: State the recorded melting point for this entry: Clc1ccc(C2=NN(c3ccccc3)C(c3cccs3)C2)cc1Cl (stereo not shown)
Result: 130

Task: State the recorded melting point for this entry: CC(=O)c1c(-c2cccs2)cc(-c2ccc(O)cc2)[nH]c1=O
Result: 220

Task: State the recorded melting point for this entry: O=C(CNC(=S)n1nc(-c2ccc(Cl)c(Cl)c2)cc1-c1cccs1)c1ccccc1 [12b]
Result: 160

Task: State the recorded melting point for this entry: O=C(SC(=S)N1N=C(c2ccc(O)cc2)CC1c1cccs1)c1ccccc1 (stereo not shown) [18a]
Result: 240

====

Tested on: A. flavus
protocol: Antifungal activity, inhibition zone approach
Format: cell-based, Aspergillus flavus
study-conditions: ketoconazole = 100
Classify as follows. Reported A. flavus % Activity index greater than or equal to 40%: TRUE. Reported A. flavus % Activity index below: FALSE.

{"columns": ["compound", "label-class"],
 "data": [
  ["O=C(SC(=S)N1N=C(c2ccc(O)cc2)CC1c1cccs1)c1ccccc1 (stereo not shown) [18a]", "TRUE"],
  ["CC(=O)c1c(-c2cccs2)cc(-c2ccc(O)cc2)[nH]c1=O", "FALSE"],
  ["NS(=O)(=O)c1ccc(NC(=O)CN2N=C(c3ccc(O)cc3)CC2c2cccs2)cc1 (stereo not shown) [16a]", "TRUE"],
  ["CC(=O)N1CCN(c2ccc(OCC3COC(Cn4ccnc4)(c4ccc(Cl)cc4Cl)O3)cc2)CC1 (stereo not shown) [Ketoconazole, reference compound]", "TRUE"],
  ["Oc1ccc(C2=NNC(c3cccs3)C2)cc1 (stereo not shown)", "TRUE"],
  ["NC(=S)n1nc(-c2ccc(Cl)c(Cl)c2)cc1-c1cccs1 [10b]", "TRUE"]
]}

Task: Form field: A. flavus % Activity index at least 40%? Entry: CCOC(=O)c1c(-c2cccs2)cc(-c2ccc(O)cc2)[nH]c1=O
Result: TRUE

Task: Form field: A. flavus % Activity index at least 40%? Entry: CC(=O)N1N=C(c2ccc(Cl)c(Cl)c2)CC1c1cccs1 (stereo not shown)
Result: FALSE
